Exercise: state measured normalized growth for each of the molecules provided.
# methodDescription: chemical genetic growth profiling, strain panel (AID 1159580);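 further: tested at 20 µM; growth read once vehicle control cultures reached saturation at 30 °C; 1 = growth at the plate median or of vehicle wells; lower values mean less growth of the strain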
# experimentalParameters: S. cerevisiae deletion strains, growth OD, locus YLR342W, strain FKS1, active compounds read low
The whole screen tested about 5,500 compounds, of which about 2,000 (36%) were called active. About 18% were inconclusive and are not listed. The list shows a part of the results.

molecule: S=C=NCc1ccccc1
normalized growth: 0.129 (active)
//
molecule: N=c1nc(N2CCCCC2)cc(N)n1O
normalized growth: 0.985 (inactive)
//
molecule: CN=C(NC#N)NCCSCc1nc(N=C(N)N)cs1
normalized growth: 0.987 (inactive)
//
molecule: O=C(O)COc1cc(Cl)c(Cl)cc1Cl
normalized growth: 0.999 (inactive)
//
molecule: CCC1(c2ccccc2)C(=O)NCNC1=O
normalized growth: 1.03 (inactive)

Please report normalized growth for every entry that follows.
1. O=c1ccc2ccccc2o1
2. NC(N)=NOCC[C@H](N)C(=O)O
3. COc1ccc(C[C@H]2NC[C@H](O)[C@H]2OC(C)=O)cc1
4. OCCN(CCO)c1nc(N2CCCCC2)c2nc(N(CCO)CCO)nc(N3CCCCC3)c2n1
5. O=c1ccc2cc(O)c(O)cc2o1
6. CNC1(C)C2CCC(C2)C1(C)C (centres undefined)

1. 1 (inactive)
2. 0.992 (inactive)
3. 0.412 (active)
4. 0.99 (inactive)
5. 1.02 (inactive)
6. 0.99 (inactive)

Please report normalized growth for every entry that follows.
1. C[CH2][Hg][S]c1ccccc1C(=O)O
2. CCN(CC)C(=S)SSC(=S)N(CC)CC
3. O=C(O)c1cc(=O)c2ccc(Cl)cc2[nH]1

["0.0616 (active)", "0.0645 (active)", "1.02 (inactive)"]

Provenance of the data: PubChem BioAssay AID1159580
